These measurements were taken from patent US20090030005A1.

- System: MTAP+/+ MiaPaCa-2 cells
- run_description: 14C-thymidine incorporation assay (cell viability) in MTAP+/+ MiaPaCa-2 cells
- Type: cell-based
- condition_set: Homo sapiens, MIA PaCa-2, MTAP+/+ cells; 1.7 μM alanosine and 20 μM MTA; read-out: IC50 of the CDK4 inhibitor together with the alanosine and with MTA
readout_kind: IC50 (µM)
Answers are plain numbers, in µM.

Look up IC50 for this molecule: CC(=O)c1c(C)c2cnc(Nc3ccc(N4CCNCC4)cn3)nc2n(C2CCCC2)c1=O
6.1

====

- Test system: MTAP-/- MiaPaCa-2 cells
- run_description: 14C-thymidine incorporation assay (cell viability) in MTAP-/- MiaPaCa-2 cells
- Format: cell-based
- condition_set: Homo sapiens, MIA PaCa-2, MTAP-/- cells; with 1.7 μM (IC20) alanosine; read-out: IC50 of the CDK4 inhibitor together with the alanosine
readout_kind: IC50 (nM)
Answers are plain numbers, in nM.

Look up IC50 for this molecule: CC(=O)c1c(C)c2cnc(Nc3ccc(N4CCNCC4)cn3)nc2n(C2CCCC2)c1=O
287
